# System: red blood cells (mechanically defibrinated sheep blood)
# Procedure summary: Hemolysis assay (cell lysis)
# Assay type: cell-based
# Set-up: unit not given here
# Setup conditions: Concentration 8 μM; 1 hour, 37° C.
Recorded red blood cell lysis values for a group of compounds are listed next.

CC(C)(C)c1ccc(Cc2ccc(C(C)(C)C)c(O)c2)cc1O [Compound 3N, 5,5′-methylenebis(2-(tert-butyl)phenol)] :: −0.03
CC(C)(C)c1ccc(CCc2cccc(O)c2)cc1O [Compound 1H-3] :: 0.29
COc1cc(CCc2ccc(C(C)(C)C)c(O)c2)ccc1C(C)(C)C [Compound 1H-2] :: −0.03
COc1cccc(CCc2ccccc2O)c1 [Compound 6] :: −0.03

Kindly consider the entry below.
[Q] Look up red blood cell lysis of CC(C)(C)c1ccc(CCc2ccc(C(C)(C)C)c(O)c2)cc1O [Compound C2] and report it.
[A] −0.03

----------
# reported red blood cell lysis; entries follow
# System: red blood cells (mechanically defibrinated sheep blood)
# Procedure summary: Hemolysis assay (cell lysis)
# Assay type: cell-based
# Parameters: unit not given here
# Setup conditions: Concentration 250 μM; 1 hour, 37° C.

[Q] For the compound CC(C)(C)c1ccc(Cc2ccc(C(C)(C)C)c(O)c2)cc1O [Compound 3N, 5,5′-methylenebis(2-(tert-butyl)phenol)] , give its reported red blood cell lysis.
[A] 0.34

[Q] Given COc1cccc(CCc2ccccc2O)c1 [Compound 6] , respond with its red blood cell lysis.
[A] 0.02

[Q] Please look at this compound and report its red blood cell lysis: CC(C)(C)c1ccc(CCc2ccc(C(C)(C)C)c(O)c2)cc1O [Compound C2]
[A] 0.70

[Q] Given COc1cc(CCc2ccc(C(C)(C)C)c(O)c2)ccc1C(C)(C)C [Compound 1H-2] , respond with its red blood cell lysis.
[A] 0.21

[Q] Give the measured red blood cell lysis for CC(C)(C)c1ccc(CCc2cccc(O)c2)cc1O [Compound 1H-3]
[A] 0.69
